systemUnderTest: T1, recombinant human MASP1 active protease (amino acids 297-699, C-terminal His Tag) (human, UniProt P48740 297-699)
T1 sequence: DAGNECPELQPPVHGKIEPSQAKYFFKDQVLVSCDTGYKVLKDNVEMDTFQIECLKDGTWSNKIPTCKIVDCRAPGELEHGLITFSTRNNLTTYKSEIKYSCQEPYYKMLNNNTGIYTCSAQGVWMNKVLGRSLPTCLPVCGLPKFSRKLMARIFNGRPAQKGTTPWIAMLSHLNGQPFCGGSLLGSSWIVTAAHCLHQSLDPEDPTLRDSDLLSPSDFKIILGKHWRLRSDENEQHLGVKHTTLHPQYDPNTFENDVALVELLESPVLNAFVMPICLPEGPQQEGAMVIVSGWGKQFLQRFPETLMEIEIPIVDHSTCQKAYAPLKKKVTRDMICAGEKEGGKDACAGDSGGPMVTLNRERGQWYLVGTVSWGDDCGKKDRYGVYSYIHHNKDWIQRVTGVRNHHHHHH
protocolNotes: cell-based or functional assay
Bridge positions count the residues as written; N and C are the ends. Square brackets hold non-standard residues; d marks the D form. Ends that are not written are not given here. Pro(cis-4-CF3) = O=C(O)[C@@H]1C[C@H](C(F)(F)F)CN1; Oic = O=C(O)[C@@H]1C[C@@H]2CCCC[C@@H]2N1; tBuAla = CC(C)(C)C[C@H](N)C(=O)O; Pen = CC(C)(S)[C@H](N)C(=O)O; NMeC = CN[C@@H](CS)C(=O)O; PEG3 = NCCOCCOCCOCCC(=O)O; NMeA = CN[C@@H](C)C(=O)O; Sar = CNCC(=O)O
One threshold, 3 nM, splits the recorded human MASP1 IC50 values: lower ones are t, equal or higher ones are f.

AICSRS[tBuAla]P[Pro(cis-4-CF3)]I[NMeC]IPD-NH2 (disulfide 3-11; N-terminus assumed; SMILES CC[C@H](C)[C@H](NC(=O)[C@H](C)N)C(=O)N[C@H]1CSSC[C@@H](C(=O)N[C@H](C(=O)N2CCC[C@H]2C(=O)N[C@@H](CC(=O)O)C(N)=O)[C@@H](C)CC)N(C)C(=O)[C@H]([C@@H](C)CC)NC(=O)[C@@H]2C[C@H](C(F)(F)F)CN2C(=O)[C@@H]2CCCN2C(=O)[C@H](CC(C)(C)C)NC(=O)[C@H](CO)NC(=O)[C@H](CCCNC(=N)N)NC(=O)[C@H](CO)NC1=O) [AIC+SRS-((tBu)A)-P-((4-CF3)P)-I-((N-Me)C)+IPD-NH2] : f
AICSRS[tBuAla]PPI[Pen]IP[dN]-NH2 (disulfide 3-11; N-terminus assumed; SMILES CC[C@H](C)[C@H](NC(=O)[C@H](C)N)C(=O)N[C@H]1CSSC(C)(C)[C@@H](C(=O)N[C@H](C(=O)N2CCC[C@H]2C(=O)N[C@H](CC(N)=O)C(N)=O)[C@@H](C)CC)NC(=O)[C@H]([C@@H](C)CC)NC(=O)[C@@H]2CCCN2C(=O)[C@@H]2CCCN2C(=O)[C@H](CC(C)(C)C)NC(=O)[C@H](CO)NC(=O)[C@H](CCCNC(=N)N)NC(=O)[C@H](CO)NC1=O) [AIC+SRS-((tBu)A)-PPI-(Pen)+IPn-NH2] : t
[Sar]ICSRSLP[Oic]I[Pen]IP[PEG5‑CH2CO2H (18 atoms)]-NH2 (disulfide 3-11) [((N-Me)G)-IC+SRSLP-(Oic)-I-(Pen)+IP-(PEG5-CH2CO2H (18 atoms))-NH2] : t
[Sar]ICSRSLP[Oic]I[Pen]IPD[PEG3]-NH2 (disulfide 3-11; N-terminus assumed; SMILES CC[C@H](C)[C@H](NC(=O)CNC)C(=O)N[C@H]1CSSC(C)(C)[C@@H](C(=O)N[C@H](C(=O)N2CCC[C@H]2C(=O)N[C@@H](CC(=O)O)C(=O)NCCOCCOCCOCCC(N)=O)[C@@H](C)CC)NC(=O)[C@H]([C@@H](C)CC)NC(=O)[C@@H]2C[C@@H]3CCCC[C@@H]3N2C(=O)[C@@H]2CCCN2C(=O)[C@H](CC(C)C)NC(=O)[C@H](CO)NC(=O)[C@H](CCCNC(=N)N)NC(=O)[C@H](CO)NC1=O) [((N-Me)G)-IC+SRSLP-(Oic)-I-(Pen)+IPD-(PEG2(13 atoms))-NH2] : t

Please find the next binder below.
Input line: hey, is human MASP1 IC50 for [NMeA]ICSRSLP[Oic]I[Pen]I-NH2 (disulfide 3-11; N-terminus assumed; SMILES CC[C@H](C)[C@H](NC(=O)[C@H]1NC(=O)[C@H]([C@@H](C)CC)NC(=O)[C@@H]2C[C@@H]3CCCC[C@@H]3N2C(=O)[C@@H]2CCCN2C(=O)[C@H](CC(C)C)NC(=O)[C@H](CO)NC(=O)[C@H](CCCNC(=N)N)NC(=O)[C@H](CO)NC(=O)[C@@H](NC(=O)[C@@H](NC(=O)[C@H](C)NC)[C@@H](C)CC)CSSC1(C)C)C(N)=O) [((N-Me)A)-IC+SRSLP-(Oic)-I-(Pen)+I-NH2] lower than 3 nM or not?
Output line: f

From: patent US20210246166A1
